System: Wolbachia pipientis
Experiment: Anti-Wolbachia Cell-Based Screen
Type: functional
Set-up: scale not given: in the data most compounds retested in dose-response had high values
Settings: 5 µM
About 13,000 (27%) of roughly 48,000 compounds showed an effect of 50% or more. This is one part of the list.
MEASURED_QUANTITY: Percent Effect (%)
Give bare numbers, in %.

For orientation, consider the following solved cases.
| COMPOUND | SYSTEM_TESTED | UNIT_TAG | Percent Effect |
| --- | --- | --- | --- |
| Cc1nc(N(C)CCCc2nccn2C)c2c(C)nn(C)c2n1 | Wolbachia pipientis | % | -2.28 |
| O=S(=O)(NCC1(O)CCOc2ccccc21)c1ccc(Br)s1 (stereo not drawn) | Wolbachia pipientis | % | -8.06 |
| CC[C@@H]1N(CC2CC2)CCC[C@]12CCC(=O)N2CCOC.O=C(O)C(F)(F)F | Wolbachia pipientis | % | -7.54 |
| COc1ccccc1N1CCCC(Nc2ncccn2)C1=O (stereo not drawn) | Wolbachia pipientis | % | -13.39 |
| CN1C(=O)CCCC12CCCN(Cc1nccs1)C2.O=C(O)C(F)(F)F (stereo not drawn) | Wolbachia pipientis | % | -2.009 |

// for each compound in input: emit Percent Effect
1. Cc1cc(C)c(C#N)c(NCCn2cnnc2C(C)C)n1
2. Cc1cc(C)cc(OCCNC(=O)C(C)Sc2nncn2C)c1 (stereo not drawn)
3. COc1ccccc1N1CC(NC(=O)Cn2cc(C(C)C)nn2)CC1=O (stereo not drawn)
4. CC(C)Oc1ccccc1C(=O)NC1CC(=O)N(CC(F)(F)F)C1 (stereo not drawn)
5. COc1ccccc1N1CC(NC(=O)Cn2cc(C)nn2)CC1=O (stereo not drawn)

Result string:
1. 112.6
2. -3.054
3. 82.88
4. -7.447
5. 83.28

* * *

What Percent Effect was measured for each of the following?
Tested on: Wolbachia pipientis
Assay: Anti-Wolbachia Cell-Based Screen
Assay type: functional
Design: scale not given: in the data most compounds retested in dose-response had high values
Settings: 5 µM
The campaign covered roughly 48,000 compounds. About 13,000 (27%) showed an effect of 50% or more. The list shows a part of the results.
One number for each entry, in %.

For orientation, consider the following solved cases.
| COMPOUND | SYSTEM_TESTED | QUANTITATIVE_READOUT |
| --- | --- | --- |
| Cc1cccnc1CN1CCN(C[C@]2(O)CCCN3CCCC[C@@H]32)CC1 | Wolbachia pipientis | 4.951 |
| Cc1ccc(S(=O)(=O)NC[C@H]2OC[C@@H](NCc3ccccc3)[C@@H]2O)cc1 | Wolbachia pipientis | -16.71 |
| CCc1nnc2n1CCN(C(=O)c1cc3c(F)cccc3[nH]1)C2 | Wolbachia pipientis | 92 |
| Cc1n[nH]c(C)c1CN(C)C(C(=O)O)c1ccc2c(c1)OCO2 (stereo not drawn) | Wolbachia pipientis | 109.5 |
| CCN1CCN(c2ccc(F)cc2C(C)NCc2nc(C)no2)CC1 (stereo not drawn) | Wolbachia pipientis | 5.378 |

// for each compound in input: emit Percent Effect
1. COc1ccc2c(c1)ncn2C[C@]1(O)CCCN2CCCC[C@@H]21
2. O[C@@]1(CN2CCN(Cc3ccncc3)CC2)CCCN2CCCC[C@@H]21

Result string:
[108.1, 17.3]

// for each compound in input: emit Percent Effect
1. COc1ccc(C(C(=O)O)N(C)Cc2ccon2)cc1Cl (stereo not drawn)
2. CCN1CCN(C(=O)c2ccc(OC)nn2)c2ccccc21
3. CN(C)c1ccccc1C(=O)N1C[C@@H](CN2CCCCC2)[C@@H](CO)C1
4. COc1ccc(C(O)C(=O)N2CCC(c3nccn3C(C)C)CC2)cc1 (stereo not drawn)
5. CCNc1ncc(C(=O)Nc2nnc(N3CCCCC3)[nH]2)s1

Result string:
1. 4.9
2. 6.209
3. -1.886
4. -20.71
5. 22.13

// for each compound in input: emit Percent Effect
1. COc1cccc(C(C(=O)O)N(C)Cc2ccc(C)o2)c1 (stereo not drawn)
2. CN(C)C(C(=O)N1CC(c2ccccn2)C1)c1ccc2c(c1)OCO2 (stereo not drawn)
3. CC(C)n1nc2c(cc1=O)CN(c1nc3ccccc3s1)CC2
4. COc1ccc(C(C(=O)O)N(C)CCN2CCOCC2)c(C)c1 (stereo not drawn)
5. Cc1ccc(CN(C)C(C(=O)O)c2ccc3c(c2)OCO3)o1 (stereo not drawn)

Result string:
1. 105.1
2. -10.36
3. 8.102
4. 5.185
5. 114

// for each compound in input: emit Percent Effect
1. Cc1cc(C)c2nc(CNC3CCNC3=O)cc(O)c2c1 (stereo not drawn)
2. CC(=O)Nc1cccc(C(=O)Nc2cnc3n2CCCC3)c1
3. Cc1ccnc(N2CCN(C[C@]3(O)CCCN4CCCC[C@@H]43)CC2)c1

Result string:
[-8.98, -12.98, -8.166]

// for each compound in input: emit Percent Effect
1. CCc1nnc2n1CCN(C(=O)c1ccc3c(c1)NC(=O)CO3)C2
2. CCN1CCN(c2ccc(C(=O)NC(C)C(=O)N(C)C)cc2)CC1 (stereo not drawn)
3. COc1cccc(OC)c1C(C(=O)O)N(C)Cc1c(C)n[nH]c1C (stereo not drawn)

Result string:
1. -1.668
2. 1.595
3. -9.19

These measurements were taken from ChEMBL document CHEMBL3988442.
